# Test system: Clostridium difficile clinical isolate growth, OD600, 24 h
# protocol_text: growth modulation of Clostridium difficile isolate – OD600, 9-point, retest, dose response (AID 1224920);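 note: inhibitors lower culture turbidity so OD600 falls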
readout_type: IC50

Observe how each entry below is paired with its result.
chemical_smiles	val
COc1ccc(C#Cc2ccc([C@@H]3[C@@H](CO)N4CCCCN(C(=O)Nc5cccc(F)c5)C[C@H]34)cc2)cc1	14.4 µM
O=C(C[C@@H]1CC[C@H]2[C@@H](COC[C@@H](O)CN2C(=O)Nc2ccc(C(F)(F)F)cc2)O1)NCC1CCCCC1	7.5 µM
O=C(c1ccccc1)N1CC[C@@H]2[C@H]1c1cc(-c3ccc(F)cc3)ccc1N[C@@H]2CO	129 µM

Query IC50 for "O=C(Nc1ccccc1)N1CCCCN2[C@@H](CO)[C@@H](c3ccc(C#Cc4ccccc4)cc3)[C@@H]2C1"
19 µM

---

Entries and their measured pIC50 follow.
# Test system: Clostridium difficile clinical isolate growth, OD600, 24 h
# protocol_text: growth modulation of Clostridium difficile isolate – OD600, 9-point, retest, dose response (AID 1224920);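 note: inhibitors lower culture turbidity so OD600 falls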
In textbook form, pIC50 equals minus log to base ten of the concentration in mol/L.

Completed entries (count: 3):
compound	pIC50
O=C(Nc1ccccc1)N1C[C@@H]2N[C@H](C1)[C@@H]2c1ccc(/C=C/c2ccccc2)cc1	4.89
O=C(Nc1cccc(F)c1)N1CCCCN2[C@@H](CO)[C@@H](c3ccc(-c4ccccc4F)cc3)[C@@H]2C1	4.88
Cc1ccccc1-c1ccc(C2[C@H]3CNC[C@@H]2N3S(=O)(=O)c2ccc(Cl)cc2)cc1 (some centres not stated)	4.45

Please list pIC50 recorded for the compound "O=C(C[C@H]1CC[C@@H]2[C@H](COC[C@@H](O)CN2C(=O)Nc2ccc(Cl)c(Cl)c2)O1)NC1CCC1"
4.56

---

# Tested on: Clostridium difficile clinical isolate growth, OD600, 24 h
# protocol_text: growth modulation of Clostridium difficile isolate – OD600, 9-point, retest, dose response (AID 1224920);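 active = IC50 no higher than ten times the top tested dose; inconclusive = flat fit with 30 to 70% inhibition, or poor fit; inactive = IC50 above ten times the top dose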;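 note: inhibitors lower culture turbidity so OD600 falls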
Outcome (select one): active, inactive

Record excerpt, results attached:
molecule	class_label
COc1ccc(-c2ccc(C3[C@@H]4CN(C(=O)Nc5cccc(F)c5)C[C@H]3N4)cc2)cc1 (some centres undefined)	active
COc1cc(CN2C[C@@H]3N[C@H](C2)C3c2ccc(-c3ccc(C#N)cc3)cc2)cc(OC)c1 (some centres undefined)	active
O=C(C1CCCCC1)N1C[C@@H]2N[C@H](C1)C2c1ccc(-c2cccc(F)c2)cc1 (some centres undefined)	active
OC[C@@H]1Nc2ccc(C#Cc3ccc(F)cc3)cc2[C@H]2NCC[C@@H]12	active
N#Cc1cccc(-c2ccc(C3[C@H]4CNC[C@@H]3N4Cc3ccc(F)cc3)cc2)c1 (some centres undefined)	active
O=C(Nc1cccc(F)c1)N1CCCCN2[C@H](CO)[C@H](c3ccc(-c4ccccc4F)cc3)[C@H]2C1	active
Cc1cccc(-c2ccc(C3[C@@H]4CN(C(=O)Nc5ccc(F)cc5)C[C@H]3N4)cc2)c1 (some centres undefined)	active
Cc1ccc(-c2ccc(C3[C@H]4CNC[C@@H]3N4S(=O)(=O)c3ccccc3C)cc2)cc1 (some centres undefined)	active

Then this molecule:
So what was the verdict on COc1ccc(-c2ccc(C3[C@H]4CNC[C@@H]3N4Cc3ccc4c(c3)OCO4)cc2)cc1 (some centres undefined) in this test?
active

---

The following compounds are listed with their measured IC50 values.
# System: Clostridium difficile clinical isolate growth, OD600, 24 h
# protocol_text: growth modulation of Clostridium difficile isolate – OD600, 9-point, retest, dose response (AID 1224920);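 note: inhibitors lower culture turbidity so OD600 falls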

Example entries begin here.
compound	IC50
O=S(=O)(c1ccc(F)cc1)N1C[C@@H]2N[C@H](C1)C2c1ccc(-c2ccc(F)cc2)cc1 (some centres undefined)	128 µM
Cc1ccc(S(=O)(=O)N2[C@@H]3CNC[C@H]2C3c2ccc(-c3ccccc3C)cc2)cc1 (some centres undefined)	30.6 µM
COc1ccc(C#Cc2ccc([C@H]3[C@@H](CO)N4CCCCN(C(=O)Nc5cccc(F)c5)C[C@H]34)cc2)cc1	4.44 µM
C/C=C/c1ccc(C2[C@H]3CNC[C@@H]2N3Cc2cccc(F)c2)cc1 (some centres undefined)	31.1 µM
COc1cccc(-c2ccc(C3[C@H]4CNC[C@@H]3N4Cc3ccc(F)cc3)cc2)c1 (some centres undefined)	11.9 µM

Indicate its recorded IC50; the compound in question is "CC(C)CC#Cc1ccc([C@H]2[C@@H](CO)N3CCCCN(C(=O)Nc4ccccc4)C[C@H]23)cc1"
12.8 µM

Read off the recorded IC50 for O=S(=O)(c1ccccc1F)N1C[C@@H]2N[C@H](C1)C2c1ccc(/C=C/c2ccccc2)cc1 (some centres undefined)
19.4 µM

Input O=C(C1CC1)N1C[C@@H]2N[C@H](C1)C2c1ccc(/C=C/c2ccccc2)cc1 (some centres undefined) , output reported IC50.
70.3 µM

Return IC50 (reported value) for this compound: "Cc1ccc(-c2ccc([C@@H]3[C@@H]4CN(Cc5ccccc5F)C[C@H]3N4)cc2)cc1"
4.19 µM

---

Quick reference for IC50 among some compounds
# Tested on: Clostridium difficile clinical isolate growth, OD600, 24 h
# protocol_text: growth modulation of Clostridium difficile isolate – OD600, 9-point, retest, dose response (AID 1224920);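 note: inhibitors lower culture turbidity so OD600 falls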

Consider the following illustrative entries.
compound	IC50
O=C(Nc1ccccc1F)N1CCCCN2[C@H](CO)[C@H](c3ccc(/C=C/c4ccccc4)cc3)[C@H]2C1	10.4 µM
O=C(NC[C@H]1N[C@H](CO)[C@@H]1c1ccc(C2=CCCCC2)cc1)c1ccccc1	58.2 µM
COc1cc(CN2[C@@H]3CNC[C@H]2C3c2ccc(-c3ccccc3C)cc2)cc(OC)c1 (stereo partly drawn)	18.8 µM
N#Cc1cccc(-c2ccc(C3[C@@H]4CN(Cc5ccccc5)C[C@H]3N4)cc2)c1 (stereo partly drawn)	79.6 µM
O=C(Nc1ccccc1F)N1CCCCN2[C@@H](CO)[C@@H](c3ccc(/C=C/c4ccccc4)cc3)[C@@H]2C1	11.5 µM
O=C(C[C@H]1CC[C@@H]2[C@H](COC[C@H](O)CN2C(=O)Nc2ccc(C(F)(F)F)cc2)O1)NCC1CCCCC1	6.15 µM

Input "Cc1ccccc1S(=O)(=O)N1CCCCN2[C@H](CO)[C@H](c3ccc(-c4cccc(F)c4)cc3)[C@H]2C1" , output reported IC50.
11.3 µM

# return recorded IC50 for input "COc1ccc(S(=O)(=O)N2CCCCN3[C@H](CO)[C@H](c4ccc(C5=CCCCC5)cc4)[C@H]3C2)cc1"
29.5 µM

---

# Tested on: Clostridium difficile clinical isolate growth, OD600, 24 h
# protocol_text: growth modulation of Clostridium difficile isolate – OD600, 9-point, retest, dose response (AID 1224920);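 note: inhibitors lower culture turbidity so OD600 falls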
Active and inactive are the calls of the source.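 How the source made its calls: active means IC50 no higher than ten times the top tested dose; inconclusive means flat fit with 30 to 70% inhibition, or poor fit; inactive means IC50 above ten times the top dose.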
Write down the outcome that applies. Available outcomes: active, inactive

Below, 2 compounds whose answers are already recorded.
compound	class_label
OC[C@H]1[C@@H](c2ccc(-c3cccc(F)c3)cc2)[C@@H]2CN(CCC(F)(F)F)CCCCN12	active
CCCN(C)C[C@@H]1OCCCC[C@@H](C)Oc2ccc(NC(=O)Nc3ccc(C(F)(F)F)cc3)cc2C(=O)N([C@H](C)CO)C[C@H]1C	active

What call does the record list for C(=C\c1ccc(C2[C@H]3CNC[C@@H]2N3Cc2nccs2)cc1)/c1ccccc1 (stereo partly drawn) ?
active

Kindly provide the recorded test outcome for the following compound: "N#Cc1ccc(-c2ccc3c(c2)[C@H]2[C@H](CCN2C(=O)c2ccncc2)[C@H](CO)N3)cc1"
inactive

Could you please tell me the result logged for "O=C(Nc1ccc(F)cc1)N1CCCCN2[C@H](CO)[C@@H](c3ccc(-c4cccc(F)c4)cc3)[C@H]2C1" in this assay?
active

---

# Tested on: Clostridium difficile clinical isolate growth, OD600, 24 h
# protocol_text: growth modulation of Clostridium difficile isolate – OD600, 9-point, retest, dose response (AID 1224920);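 note: inhibitors lower culture turbidity so OD600 falls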
readout_type: IC50

molecule	IC50
OC[C@H]1[C@@H](c2ccc(C#CC3CCCC3)cc2)[C@H]2CN(CCC(F)(F)F)CCCCN21	9.49 µM

Please indicate IC50 recorded for "COc1ccc2c3c(n(C)c2c1)[C@@H](CO)NCC31CN(Cc2ccc(Cl)cc2)C1"
50 µM

Could you please provide reported IC50 for Cc1ccccc1-c1ccc(C2[C@H]3CNC[C@@H]2N3Cc2ccc3c(c2)OCO3)cc1 (some centres undefined) ? Thanks!
27.7 µM

Determine its reported IC50: COc1cccc(-c2ccc(C3[C@@H]4CN(S(=O)(=O)c5ccccc5F)C[C@H]3N4)cc2)c1 (some centres undefined)
82 µM

Retrieve IC50 measured for O=S(=O)(c1ccccc1F)N1[C@@H]2CNC[C@H]1C2c1ccc(/C=C/c2ccccc2)cc1 (some centres undefined) and print it.
73.5 µM

---

# Test system: Clostridium difficile clinical isolate growth, OD600, 24 h
# protocol_text: growth modulation of Clostridium difficile isolate – OD600, 9-point, retest, dose response (AID 1224920);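 note: inhibitors lower culture turbidity so OD600 falls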
readout_type: pIC50
Scale: negative log10 of molar concentration, which is what pIC50 denotes.

Known pIC50 results, listed for orientation:
compound	experimental_system	readout_type	val
COc1ccc(S(=O)(=O)N2[C@@H]3CNC[C@H]2C3c2ccc(-c3cccc(C)c3)cc2)cc1 (some centres undefined)	Clostridium difficile clinical isolate growth, OD600, 24 h	pIC50	4.08
COc1ccccc1NC(=O)N1CCCCN2[C@@H](CO)[C@@H](c3ccc(-c4cccc(C)c4)cc3)[C@@H]2C1	Clostridium difficile clinical isolate growth, OD600, 24 h	pIC50	4.63
COc1ccccc1CN1C[C@@H]2N[C@H](C1)C2c1ccc(-c2ccc(C#N)cc2)cc1 (some centres undefined)	Clostridium difficile clinical isolate growth, OD600, 24 h	pIC50	4.35

# return recorded pIC50 for entry "COc1ccccc1NC(=O)N1CCCCN2[C@@H](CO)[C@@H](c3ccc(-c4ccc(C)cc4)cc3)[C@@H]2C1"
4.54
